Measured furin cleavage Z-score by item
Target: furin, P09958;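 note: purified furin at 1:10 enzyme:substrate in 50 mM HEPES pH 7.5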
Sequence (P09958 whole entry): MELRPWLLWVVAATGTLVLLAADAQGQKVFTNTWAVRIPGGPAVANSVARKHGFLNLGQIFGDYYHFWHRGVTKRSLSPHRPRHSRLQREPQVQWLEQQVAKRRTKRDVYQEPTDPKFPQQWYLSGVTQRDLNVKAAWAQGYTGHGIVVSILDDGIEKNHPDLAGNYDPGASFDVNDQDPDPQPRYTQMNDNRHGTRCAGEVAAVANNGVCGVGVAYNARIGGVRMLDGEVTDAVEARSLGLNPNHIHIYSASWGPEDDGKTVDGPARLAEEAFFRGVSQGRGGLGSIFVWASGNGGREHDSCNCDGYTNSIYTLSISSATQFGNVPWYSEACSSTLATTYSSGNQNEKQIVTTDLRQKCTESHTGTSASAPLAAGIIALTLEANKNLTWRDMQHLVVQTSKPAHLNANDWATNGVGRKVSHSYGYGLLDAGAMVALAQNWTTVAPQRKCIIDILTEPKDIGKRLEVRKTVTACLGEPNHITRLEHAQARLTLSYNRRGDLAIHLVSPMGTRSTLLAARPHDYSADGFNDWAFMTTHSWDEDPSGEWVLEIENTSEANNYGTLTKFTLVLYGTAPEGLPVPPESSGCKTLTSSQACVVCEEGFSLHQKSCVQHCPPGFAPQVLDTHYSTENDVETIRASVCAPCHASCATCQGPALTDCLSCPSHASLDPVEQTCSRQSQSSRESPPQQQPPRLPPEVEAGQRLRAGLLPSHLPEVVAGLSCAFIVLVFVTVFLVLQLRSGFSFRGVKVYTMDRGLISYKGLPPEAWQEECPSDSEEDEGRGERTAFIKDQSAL
Test: furin cleavage Z-score vs untreated control; higher = more cleavage, active = 3.5 or more, inactive = 1 or less, 8 variable residues between constant flanks
Conditions: 7.5 min
The list shows a part of the results. The hit rate among all sequences tested is not known here.
// return just the number, without any unit appended

QUERY SEQUENCE: CALSRRRVRCAGNASASA [FS-1543]
furin cleavage Z-score: 10.2

QUERY SEQUENCE: CAGDKELRTGAGNASASA [EK10]
furin cleavage Z-score: -0.528

QUERY SEQUENCE: CAHSKRRVRDAGNASASA [FS-663]
furin cleavage Z-score: 13.2

QUERY SEQUENCE: CARPGRLDRHAGNASASA [FS-917]
furin cleavage Z-score: 1.02

QUERY SEQUENCE: CAEVVSSTWVAGNASASA [HC135]
furin cleavage Z-score: 0.7

QUERY SEQUENCE: CARHGRRRRHAGNASASA [FS-1156]
furin cleavage Z-score: 10.6

QUERY SEQUENCE: CAGDSRVMRWAGNASASA [FS-591]
furin cleavage Z-score: 0.599

QUERY SEQUENCE: CAINRRTGRPAGNASASA [FS-34]
furin cleavage Z-score: -0.402

Query: Reported furin cleavage Z-score, sequence CAVSPTHYVPAGNASASA [HC1125] : ____
Reply: 0.189

Query: Could you do the same for CAEVNTSTWVAGNASASA [HC2201] , please?
Reply: 0.639

Query: Could you do the same for CALSPRVKRIAGNASASA [FS-687] , please?
Reply: 8.46

Query: Could you do the same for CALVHRVKRRAGNASASA [FS-274] , please?
Reply: 13

Query: Could you do the same for CAVVCCSNSYAGNASASA [HC2061] , please?
Reply: 0.77

Query: Could you do the same for CAAAWETARHAGNASASA [HC1568] , please?
Reply: 0.137

Query: Could you do the same for CAVQYLYGVGAGNASASA [HC510] , please?
Reply: -0.596

Query: Could you do the same for CATPGLPVCQAGNASASA [HC933] , please?
Reply: 0.0348

Query: Could you do the same for CAHSKRKISWAGNASASA [FS-2865] , please?
Reply: 1.39

Query: Could you do the same for CAAKSRPVRDAGNASASA [FS-522] , please?
Reply: 8.85

Query: Could you do the same for CAVSPRVKRRAGNASASA [FS-1105] , please?
Reply: 6.42

Query: Could you do the same for CASTRRRPRHAGNASASA [FS-1170] , please?
Reply: 4.52
